tested-system: HLA-A*02:06
assay-comment: IEDB peptide-MHC binding, purified MHC/competitive/radioactivity; filed as Kd, often an IC50 or EC50 that approximates it; bounds were set here for any values at or beyond the usual limits of such assays
assay-setup: source organism: Vaccinia virus WR
Each entry below carries its reported pKd.
Formally, pKd is defined as -log10 of the concentration c, with c in mol/L.

Solved cases below.
Known value: HLA-A*02:06 pKd of the sequence "TVDFTDCRTI" equals 4.97

Lab note: sequence "IVFGIYKDNL" tested on HLA-A*02:06; recorded pKd was 7.32

Field pKd (HLA-A*02:06), entry "KLLNMRDLI" : 7.36

Simply: "IIELPYVGDT" , HLA-A*02:06, pKd = 4.77

Entry "LLPLTSLVI" , tested on HLA-A*02:06, has a reported pKd of 5.84

---
Short answer on HLA-A*02:06 for "CTINVNSLAL" , pKd: 6.67

The reported pKd value, HLA-A*02:06, for "MLLNVQTLI" reads 9.66

// returns pKd for "CTMERTNDL" with HLA-A*02:06; value = 7.02

Lab note: sequence "SLTQVKELGI" tested on HLA-A*02:06; recorded pKd was 6.80

For the sequence "MMNERDVSV" , the measured pKd on HLA-A*02:06 was 7.19

Value sought: pKd, system HLA-A*02:06, item "NQLDSSNKSM" . Result: 6.20

With HLA-A*02:06 as the test system, "NIPELKHGLL" showed pKd of 5.91
